Cited source for all entries: patent US7521397B2

- assayProcedure: logP determination by HPLC on reverse-phase column (EEC Directive 79/831 Annex V.A8)
- Type: physicochemical
- assayContext: reverse-phase C18 HPLC column, pH 2.3, 43° C., preparation examples, read-out: logP (pH 2.3)
recordedMetric: chromatographic logP
Numbers only.

Dear reader, for each entry below, please note its chromatographic logP.
1. Nc1c(F)cccc1-c1ccc(Cl)c(Cl)c1 [Example (III-1)]
2. Cn1cc(C(=O)Nc2c(F)cccc2-c2ccc(Cl)c(Cl)c2)c(C(F)(F)F)n1 [Example 1]

Response:
[4.09, 3.1]

Dear reader, for each entry below, please note its chromatographic logP.
1. Cn1cc(C(=O)Nc2c(F)cccc2-c2ccc(F)c(Cl)c2)c(C(F)(F)F)n1 [Example 2]
2. Nc1ccc(F)cc1-c1ccc(Cl)c(Cl)c1 [Example (III-2)]
3. Cn1cc(C(=O)Nc2c(F)cccc2Br)c(C(F)(F)F)n1 [Example (IV-1)]

Response:
3.04
3.62
2.12

----------
- Tested on: Podosphaera leucotricha
- assayProcedure: Podosphaera test (apple)/protective
- Assay type: in vivo
- assayContext: topical, 240 h, protective spray, application rate 100 g/ha, evaluation 10 days after inoculation, read-out: Efficacy in %
recordedMetric: pest or weed control at 100 g/ha (%)
Numbers only, in %.

Some entries whose results are on file:
Cn1cc(C(=O)Nc2c(F)cccc2-c2ccc(Cl)c(Cl)c2)c(C(F)F)n1 [Example 7] ... 100
Cn1cc(C(=O)Nc2cc(F)ccc2-c2ccc(F)c(Cl)c2)c(C(F)F)n1 [Example 10] ... 100
Cn1cc(C(=O)Nc2c(F)cccc2-c2ccc(Cl)c(Cl)c2)c(C(F)(F)F)n1 [Example 1] ... 100

Continue with the next compound.
pest or weed control at 100 g/ha recorded for this compound, Cn1cc(C(=O)Nc2cc(F)ccc2-c2ccc(Cl)c(Cl)c2)c(C(F)F)n1 [Example 9] , is 83
